- Tested system: human α1H T-type channels (Homo sapiens)
- Sequence (O95180 whole entry): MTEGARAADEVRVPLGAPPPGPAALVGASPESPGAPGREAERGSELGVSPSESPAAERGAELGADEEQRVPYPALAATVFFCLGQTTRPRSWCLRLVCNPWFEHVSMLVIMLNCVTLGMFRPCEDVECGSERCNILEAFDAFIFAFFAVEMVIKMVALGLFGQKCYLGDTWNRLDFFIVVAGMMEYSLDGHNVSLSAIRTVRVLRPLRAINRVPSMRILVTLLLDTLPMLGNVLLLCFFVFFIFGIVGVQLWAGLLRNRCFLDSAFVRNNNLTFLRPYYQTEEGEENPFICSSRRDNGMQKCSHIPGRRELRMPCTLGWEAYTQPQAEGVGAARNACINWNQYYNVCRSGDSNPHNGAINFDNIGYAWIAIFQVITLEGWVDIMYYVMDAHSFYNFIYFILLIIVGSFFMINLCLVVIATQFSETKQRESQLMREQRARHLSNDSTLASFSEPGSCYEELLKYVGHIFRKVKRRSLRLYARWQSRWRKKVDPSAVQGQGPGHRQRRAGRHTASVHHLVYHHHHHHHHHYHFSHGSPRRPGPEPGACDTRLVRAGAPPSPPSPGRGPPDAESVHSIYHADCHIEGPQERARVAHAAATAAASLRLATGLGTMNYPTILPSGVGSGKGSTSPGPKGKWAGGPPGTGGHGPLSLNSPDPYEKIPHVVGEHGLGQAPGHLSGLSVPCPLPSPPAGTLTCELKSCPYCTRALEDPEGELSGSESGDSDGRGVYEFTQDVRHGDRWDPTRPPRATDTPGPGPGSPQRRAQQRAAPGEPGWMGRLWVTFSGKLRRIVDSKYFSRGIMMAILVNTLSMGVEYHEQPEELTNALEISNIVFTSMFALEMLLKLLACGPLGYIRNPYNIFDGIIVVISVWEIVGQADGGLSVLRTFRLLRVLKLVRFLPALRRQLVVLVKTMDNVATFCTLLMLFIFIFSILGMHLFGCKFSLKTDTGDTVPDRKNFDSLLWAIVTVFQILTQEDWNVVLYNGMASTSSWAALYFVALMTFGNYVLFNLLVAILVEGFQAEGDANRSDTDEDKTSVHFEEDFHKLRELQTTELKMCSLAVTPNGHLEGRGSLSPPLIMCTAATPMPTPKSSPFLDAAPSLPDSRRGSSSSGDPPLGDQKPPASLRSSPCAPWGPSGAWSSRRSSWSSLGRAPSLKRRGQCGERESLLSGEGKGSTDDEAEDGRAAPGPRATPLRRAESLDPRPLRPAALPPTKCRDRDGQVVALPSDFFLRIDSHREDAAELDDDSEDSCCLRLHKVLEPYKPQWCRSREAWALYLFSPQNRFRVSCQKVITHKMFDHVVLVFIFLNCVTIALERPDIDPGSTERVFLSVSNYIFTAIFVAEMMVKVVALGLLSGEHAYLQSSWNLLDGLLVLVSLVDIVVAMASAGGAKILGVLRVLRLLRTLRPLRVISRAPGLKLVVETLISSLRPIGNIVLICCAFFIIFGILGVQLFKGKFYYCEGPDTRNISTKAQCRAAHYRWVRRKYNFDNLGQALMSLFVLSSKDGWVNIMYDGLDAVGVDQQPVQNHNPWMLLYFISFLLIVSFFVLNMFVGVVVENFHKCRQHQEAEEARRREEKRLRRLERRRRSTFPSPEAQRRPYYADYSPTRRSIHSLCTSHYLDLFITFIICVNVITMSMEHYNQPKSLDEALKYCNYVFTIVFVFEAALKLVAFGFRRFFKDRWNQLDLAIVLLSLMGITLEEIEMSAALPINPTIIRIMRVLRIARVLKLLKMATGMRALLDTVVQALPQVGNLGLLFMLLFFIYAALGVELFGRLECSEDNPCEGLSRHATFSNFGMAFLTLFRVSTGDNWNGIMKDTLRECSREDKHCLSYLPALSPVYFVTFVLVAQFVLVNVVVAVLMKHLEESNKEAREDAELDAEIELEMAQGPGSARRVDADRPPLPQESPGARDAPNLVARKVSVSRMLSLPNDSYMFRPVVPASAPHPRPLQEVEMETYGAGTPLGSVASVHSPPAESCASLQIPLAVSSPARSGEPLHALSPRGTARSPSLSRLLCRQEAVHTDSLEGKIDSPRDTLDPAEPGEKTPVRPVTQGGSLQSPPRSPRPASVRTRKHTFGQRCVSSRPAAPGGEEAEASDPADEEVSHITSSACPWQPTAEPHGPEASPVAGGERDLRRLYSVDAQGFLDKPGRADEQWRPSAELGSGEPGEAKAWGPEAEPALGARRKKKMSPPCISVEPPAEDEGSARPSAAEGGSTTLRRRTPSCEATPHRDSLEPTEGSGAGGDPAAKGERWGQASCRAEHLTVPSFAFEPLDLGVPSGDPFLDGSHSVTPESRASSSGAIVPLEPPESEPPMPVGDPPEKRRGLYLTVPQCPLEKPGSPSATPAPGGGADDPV
- Assay text: T-type calcium channel block, whole cell patch clamp, α1H
- Test settings: HEK cells stably expressing human α1H; mainly non-inactivated protocol; values above 10,000 nM represented as 10000
Reported property: pIC50
Note on pIC50: it is the negative log10 of concentration, concentration in mol/L.

INPUT: API: value(readout= pIC50, system= human α1H T-type channels (Homo sapiens), query= CN(C(=O)c1cn2cc(C(F)(F)F)ccc2n1)[C@H]1CC[C@@](F)(S(=O)(=O)c2cc(F)cc(C(F)(F)F)c2)CC1 [Compound 338] )
OUTPUT: 5.17

INPUT: Lookup O=C(N[C@H]1CC[C@@H](S(=O)(=O)c2cccc(C(F)(F)F)c2)CC1)c1ccc(Cl)c(F)c1 [Compound 130]
OUTPUT: 6.03

INPUT: Lookup CC(C)(C)OC(=O)N[C@H]1CC[C@H](S(=O)(=O)c2cccc(C(F)(F)F)c2)CC1 [Compound 95]
OUTPUT: 5.67

Hello, the source for this data is patent US20120245137A1, in case you need it.
